# Tested System: T1, Oct6 DNA-binding domain (BD-Oct6) (Mus musculus (B6), UniProt P21952 317-416)
# T1 sequence: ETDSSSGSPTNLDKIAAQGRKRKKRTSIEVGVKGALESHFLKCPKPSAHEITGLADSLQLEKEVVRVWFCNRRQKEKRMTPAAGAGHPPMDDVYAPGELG
# Assay Protocol: EMSA; 10% glycerol, 20 mM HEPES pH 7.8, 45 mM KCl, 10 mM NaCl, 1 mM EDTA, 1 mM DTT, 0.2 ug/uL BSA, 0.1% NP-40, 50 ng poly-dIdC; 20 ng each GST protein; room temperature 30 min (heterodimers 4 C); 6% PAGE 0.25x TBE
# Applied Conditions: protein: recombinant; tags: GST (N-terminal, pGEX-6P-1); label: 32P-dCTP fill-in of the 5' (dG)5 overhangs of both strands (Methods; control probes are given with GGG)
Parameter: binding result

binder="121 (dsDNA) DNA 1: GGGGGGTGCTCAATTTGTGTTAGCTATTACTAGCAAGTCATTAACTCACCCCCC DNA 2: GGGGGGTGAGTTAATGACTTGCTAGTAATAGCTAACACAAATTGAGCACCCCCC" val=binds
binder="60 (dsDNA) DNA 1: GGGGGAATTTAATTTTGTCTCTACCTTTCACGCTTCTCCTTTGCATTTTCCCCCC DNA 2: GGGGGGAAAATGCAAAGGAGAAGCGTGAAAGGTAGAGACAAAATTAAATTCCCCC" val=binds
binder="90 (dsDNA) DNA 1: GGGGGTGCTGTTTTTTGTTACTGTCACTAATTACATTTTAAATTATCCCCC DNA 2: GGGGGATAATTTAAAATGTAATTAGTGACAGTAACAAAAAACAGCACCCCC" val=binds
binder="51 (dsDNA) DNA 1: GGGGGGTCCGGCTTTTGTTGATTTGCTTATCTATCCCCC DNA 2: GGGGGATAGATAAGCAAATCAACAAAAGCCGGACCCCCC" val="no binding"
binder="128 (dsDNA) DNA 1: GGGGGAATATCAGTGTAATGATTAACAGACAATGGCAGAGGCCCCC DNA 2: GGGGGCCTCTGCCATTGTCTGTTAATCATTACACTGATATTCCCCC" val="no binding"
binder="81 (dsDNA) DNA 1: GGGGGAGAGTGCTGGTATTAAAAGGCACAAACTTTCTTTCCCCC DNA 2: GGGGGAAAGAAAGTTTGTGCCTTTTAATACCAGCACTCTCCCCC" val="no binding"
binder="97 (dsDNA) DNA 1: GGGGGTAGATGCTACAAAAGATACTGATTAAAACCCAAATGCCCCC DNA 2: GGGGGCATTTGGGTTTTAATCAGTATCTTTTGTAGCATCTACCCCC" val=binds
binder="102b (dsDNA) DNA 1: GGGGGAAAACAAAACAAAACTGGATTTGGCGATTGTATCCCCC DNA 2: GGGGGATACAATCGCCAAATCCAGTTTTGTTTTGTTTTCCCCC" val="no binding"
binder="99 (dsDNA) DNA 1: GGGGGATATAACAAGATAATCATTGTTTTGAATATTCCAAGGATTTCCCCC DNA 2: GGGGGAAATCCTTGGAATATTCAAAACAATGATTATCTTGTTATATCCCCC" val=binds
binder="126 (dsDNA) DNA 1: GGGGGAATGTTGTCATAATTGAAAAAGACAAAGCACTAATCCCCC DNA 2: GGGGGATTAGTGCTTTGTCTTTTTCAATTATGACAACATTCCCCC" val=binds
binder="120 (dsDNA) DNA 1: GGGGGTCCACACTCTATAATCTCACATTGTTTGGCACCCCCCC DNA 2: GGGGGGGTGCCAAACAATGTGAGATTATAGAGTGTGGACCCCC" val=binds
binder="102c (dsDNA) DNA 1: GGGGGATTTGGCGATTGTATTATAATTGTCTATCAGTCCCCC DNA 2: GGGGGACTGATAGACAATTATAATACAATCGCCAAATCCCCC" val=binds

Source of measurements: paper PMC3713010
